testedTarget: human PAC1 (Homo sapiens)
Sequence (P41586 21-468): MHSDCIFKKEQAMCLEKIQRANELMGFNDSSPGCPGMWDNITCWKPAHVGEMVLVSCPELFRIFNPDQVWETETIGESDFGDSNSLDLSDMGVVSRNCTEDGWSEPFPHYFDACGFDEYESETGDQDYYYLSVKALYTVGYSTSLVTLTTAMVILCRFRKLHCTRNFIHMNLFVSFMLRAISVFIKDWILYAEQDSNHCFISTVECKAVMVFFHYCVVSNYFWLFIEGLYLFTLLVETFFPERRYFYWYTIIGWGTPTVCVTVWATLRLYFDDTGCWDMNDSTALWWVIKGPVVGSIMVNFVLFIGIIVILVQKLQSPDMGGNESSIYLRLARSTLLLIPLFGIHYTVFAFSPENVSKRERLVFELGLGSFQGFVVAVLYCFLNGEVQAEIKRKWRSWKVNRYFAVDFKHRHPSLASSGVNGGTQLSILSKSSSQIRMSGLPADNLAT
assayExplanation: Filter binding assay, membranes of cells transiently transfected with human PAC1, 125I-labeled PACAP-27 tracer (Table 2)
Set-up: expressed in transfected cells
reportedConditions: read-out: Human PAC1 Receptor Binding
Protocol: For this assay, the solutions and equipment include: Presoak solution: 0.5% Polyethyleneamine in Aqua dest. Buffer for flushing filter plates: 25 mM HEPES pH 7.4 Blocking buffer: 25 mM HEPES pH 7.4; 0.2% protease free BSA Assay buffer: 25 mM HEPES pH 7.4; 0.5% protease free BSA Dilution and assay plate: PS-Microplate, U form Filtration Plate Multiscreen FB Opaque Plate; […] Type B Glasfiber filter In order to prepare the filter plates, aspirate the presoak solution by vacuum filtration. […]
pIC50: −log10 of the molar value. Where no end group is shown, it is not given here. [ ]: non-standard residue; d: D form. The star is where a group is joined. Hexanoyl = CCCCCC(=O)*; Aib = CC(C)(N)C(=O)O
Catalogue of substances with associated pIC50
experimentalReadout: pIC50

{"columns": ["substance", "valueModifier", "quantitativeResult"],
 "data": [
  ["Hexanoyl-HSDAVFTDNYTRLRKQVAAKKYLQLIKNKRYGGPSSGAPPPS [Agonist P114]", "=", 6.73],
  ["Hexanoyl-H[Aib]DAVFTDNYTRLRKQVAAKKYLQSIKNKRYGGPSSGAPPPS [Agonist P166]", "=", 6.90],
  ["Hexanoyl-HSDAVFTDNYTRLRKQVAAKKYLQSIKNSRGGPSSGAPPPS [Agonist P122]", "=", 6.52],
  ["Hexanoyl-HSDAVFTDNYTRLRKQVAAKKYLQIIKNKRYGGPSSGAPPPS [Agonist P113]", "=", 6.72],
  ["Hexanoyl-HSDAVFTDNYTRLKAQVAAKKYLQSIKNKRYGGPSSGAPPPS [Agonist P141]", "=", 6.18],
  ["Hexanoyl-HHSDAVFTDNYTRLLAKLALQKYLQSIKNKRYGGPSSGAPPPS [Agonist P191]", "<", 4.60],
  ["Hexanoyl-HSDAVFTDNYTRLRKQVAAKKYLQSIKNKRYGGPSSGAPPPC [Agonist P120]", "=", 6.24],
  ["Hexanoyl-HSDAVFTDNYTRLRKQVAALKYLQSIKNKRYGGPSSGAPPPS [Agonist P151]", "=", 6.14]
]}

These measurements were taken from patent US20080026996A1.
